Source listed as patent US20140287419A1.

MEASUREMENT DESCRIPTION: 14C assay with IPTG-induced recombinant E. coli cells (14CO2 capture from [14C]-carboxyl-labeled dicamba)
DETAILS: IPTG-induced recombinant E. coli cells; [14C]-carboxyl-labeled dicamba; 14CO2 capture
OBSERVATION TYPE: Dicamba Decarboxylase Activity

56 (protein, Enterobacter aerogenes) MAKIICLEEHYLDSELGRACMPVALEQAPFLGDWGKTVADGHNPDRSRPQIEKNALINAKGADLGSRRLRDMDEAGITLQILSVGGFPQLAPEDEAVTLNTAANDRLAEAVRNHPDRFAAFATLPWAQPKDAENELVRAVEKLGFKGALLNGRPSSCFLDHPDYDSLLSRFNKLNVPLYLHPGLPLKSVQQAYFTGFSAEVNARLSMFGWGWHHEAGIHLLRLMLSGAFDKYPNMQVISGHWGEMLPFWLQRLDDSLPLAATGLSRTLTRTFQEHVYVTPSGMLTLPHFKFIYELMGAERILFSVDYPYQTLDGVKTFIDSLPVNKAEKEAIAFRNAERLLGITA :: High
104 (protein, Plasmodium Vivax) MANILQEPIDFLKKEELKNIDLSQMSKKERYKIWKRIPKCELHCHLDLCFSADFFVSCIRKYNLQPNLSDEEVLDYYLFAKGGKSLGEFVEKAIKVADIFHDYEVIEDLAKHAVFNKYKEGVVLMEFRYSPTFVAFKYNLDIELIHQAIVKGIKEVVELLDHKIHVALMCIGDTGHEAANIKASADFCLKHKADFVGFDHGGHEVDLKEYKEIFDYVRESGVPLSVHAGEDVTLPNLNTLYSAIQVLKVERIGHGIRVAESQELIDMVKEKNILLEVCPISNVLLKNAKSMDTHPIRQLYDAGVKVSVNSDDPGMFLTNINDDYEELYTHLNFTLEDFMKMNEWALEKSFMDSNIKDKIKNLYF :: No
79 (protein, Pyrenophora teres) MATTTTPSTLIATLESHLTPTLAFTSPTTSPTQPALHLIPPTTLTKLRNLGPGRVKDMHMLGHSRQIISHIPVAAPPQICSRFNDAIHAATMTNTAKFSVLAVLPTDGMEAAKELARCVSKYRFVGGVIGLNRGLRINGEGWEELWGLAERLRIPIMFREMWPLAFEIVDYQHHLPYSALGPILTQLHTSHTSSPLPLVRLYLSSVFDHYPSLRLVLAHPGSLPSLVPRIESLINSIPATDKPKRSFLDVWQHNIYLTTADAQDMSSLRALLEQIPVDRVLYASNYPFEERGNELMNELRESEFLTNIEWERVAWVNAETLFNLKEAGTKEARQLTTIPSSRS :: High
41 (protein, listed as Polaromonas sp.) MANGKIALEEHFATEETLMDSAGFVPDKDWPELRSRLLDIQDRRVRLMDEHGIETMILSLNAPAVQAIADSTRANETARRANDFLAEQVAKQPTRFRGFAALPMQDPELAARELERCVKELGFVGALVNGFSQDNRSAVPLYYDMAQYWPFWETVQALDVPFYLHPRNPLPSDARIYDGHAWLLGPTWAFGQETAVHALRLMGSGLFDKYPALKIILGHMGEGLPYSMWRIDHRNAWIKTTPKYPAKRKIVDYFNENFYLTTSGNFRTQTLIDAILEIGADRILFSTDWPFENIDHAADWFENTSISEADRKKIGWGNAQNLFKLNR :: High
